test system: Candida albicans; test: Antifungal activity against Candida albicans ATCC 24433 by two-fold serial dilution method; assay type: functional
Reported MIC by item:
REPORTED_ENDPOINT: MIC (µg/mL)

S=c1[nH]nc2c3c(c(-c4ccc(Cl)cc4)nc4ccccc43)c(-c3ccccc3)c(-c3ccccc3)n12 :: 25
O=C(O)c1cc(-c2ccc(Cl)cc2)[n+](C/C(=N/N=C2/N=C(c3ccccc3)CS2)c2ccccc2)c2ccccc12.[I-] :: 12.5
Cc1ccc(-c2cc(C(=O)O)c3ccccc3[n+]2C/C(=N/N=C2/N=C(c3ccccc3)CS2)c2ccccc2)cc1.[I-] :: 25
Cc1ccc(-c2nc3ccccc3c3c2c(-c2ccccc2)c(-c2ccccc2)n2c(=O)[nH]nc32)cc1 :: 50
Cc1ccc(-c2cc(C(=O)O)c3ccccc3[n+]2C/C(=N/N=C2/N=C(c3ccc(N)cc3)CS2)c2ccccc2)cc1.[I-] :: 3.12

Reference source: ChEMBL document CHEMBL3045434
